All values here come from paper PMC4336329.

target: human ether-à-go-go-related gene (hERG) potassium channel (human, UniProt Q12809); assay: primary screen, population patch clamp on CHO cells stably expressing hERG; higher = less effect of the substance;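 also: peak tail current of the secondary pulse compared with the same well before compound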
Sequence (Q12809 whole entry, looked up): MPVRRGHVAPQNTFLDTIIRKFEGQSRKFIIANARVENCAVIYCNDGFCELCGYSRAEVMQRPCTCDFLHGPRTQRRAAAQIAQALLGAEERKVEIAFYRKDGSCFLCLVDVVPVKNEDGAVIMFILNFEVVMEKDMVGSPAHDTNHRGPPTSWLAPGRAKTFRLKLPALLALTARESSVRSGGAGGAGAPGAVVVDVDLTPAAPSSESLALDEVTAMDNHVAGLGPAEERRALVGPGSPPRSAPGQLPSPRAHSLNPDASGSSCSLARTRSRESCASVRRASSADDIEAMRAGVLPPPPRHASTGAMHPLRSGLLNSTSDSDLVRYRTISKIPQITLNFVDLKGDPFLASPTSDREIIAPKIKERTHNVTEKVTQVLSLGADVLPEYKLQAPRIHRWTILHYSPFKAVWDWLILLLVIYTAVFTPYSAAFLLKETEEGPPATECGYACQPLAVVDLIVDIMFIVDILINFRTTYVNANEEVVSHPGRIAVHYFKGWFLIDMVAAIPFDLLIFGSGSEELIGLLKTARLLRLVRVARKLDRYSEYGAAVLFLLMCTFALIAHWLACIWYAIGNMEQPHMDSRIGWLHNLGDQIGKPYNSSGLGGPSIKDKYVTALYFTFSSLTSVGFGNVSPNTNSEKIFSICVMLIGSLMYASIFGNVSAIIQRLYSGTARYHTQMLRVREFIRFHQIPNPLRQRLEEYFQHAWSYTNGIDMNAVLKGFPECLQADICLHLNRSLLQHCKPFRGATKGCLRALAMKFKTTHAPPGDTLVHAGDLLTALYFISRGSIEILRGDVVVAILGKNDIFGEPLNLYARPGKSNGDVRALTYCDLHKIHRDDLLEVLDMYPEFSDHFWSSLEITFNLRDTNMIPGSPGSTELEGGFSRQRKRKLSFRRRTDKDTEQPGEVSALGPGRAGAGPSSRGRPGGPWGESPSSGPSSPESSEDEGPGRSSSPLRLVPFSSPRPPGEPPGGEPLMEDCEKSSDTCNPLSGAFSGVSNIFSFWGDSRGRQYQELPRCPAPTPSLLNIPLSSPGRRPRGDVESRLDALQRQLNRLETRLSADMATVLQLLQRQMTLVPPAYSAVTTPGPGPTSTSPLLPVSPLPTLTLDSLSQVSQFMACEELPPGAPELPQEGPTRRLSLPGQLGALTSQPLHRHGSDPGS
Hit rate of the full screen: of about 310,000 compounds, about 14,000 (4.5%) showed an effect of 50% or more. The effect is printed as a negative number. The sample as a whole holds a higher share of strong results than the screen did.
PROPERTY MEASURED: hERG current change (%, negative = inhibition) at 10uM (%)
Write the number in % without appending the unit.

O=C(Cc1ccccc1)N/N=C/c1ccc(OCC(=O)Nc2ccccc2)cc1 | -14.2
CCCCN(C)C(=O)C1CCN(Cc2ccccn2)CC1.O=C(O)C(=O)O | -4.27
CCCCN(C)C(=O)C1CCN(CCCc2ccccc2)CC1.O=C(O)C(=O)O | -73.4
Cc1ccc2nc(C3CCN(CC(=O)Nc4ccc5c(c4)OCCO5)CC3)[nH]c2c1 | -50.6

Request: // hERG current change (%, negative = inhibition) at 10uM lookup, key: COc1cccc(C(C(=O)NC2CCCC2)N(C(=O)c2ccco2)c2ccc(C(C)=O)cc2)c1OC (stereo not drawn)
Response: -13.3

Request: // hERG current change (%, negative = inhibition) at 10uM lookup, key: Cc1cc(NC(=O)c2ccc(F)cc2)n(-c2ccccc2)n1
Response: -80.2

Request: // hERG current change (%, negative = inhibition) at 10uM lookup, key: CC(=O)c1cccc(NC(=O)c2cc(C)nn2-c2ccccc2)c1
Response: -21

Request: // hERG current change (%, negative = inhibition) at 10uM lookup, key: Cc1ccc(C)c(N(C(=O)CNC(=O)c2ccco2)C(C(=O)NC2CCCCC2)c2cccnc2)c1 (stereo not drawn)
Response: 15.3

Request: // hERG current change (%, negative = inhibition) at 10uM lookup, key: CCCNC(=O)CN1CCC(c2nc3ccccc3[nH]2)CC1
Response: 15.6

Request: // hERG current change (%, negative = inhibition) at 10uM lookup, key: CCOC(=O)c1ccc(NC(=O)c2cc(C)nn2-c2ccccc2)cc1
Response: -7.01

Request: // hERG current change (%, negative = inhibition) at 10uM lookup, key: CC(C)NC(=O)CN1CCC(c2nc3ccccc3[nH]2)CC1
Response: -8.64

Request: // hERG current change (%, negative = inhibition) at 10uM lookup, key: CN(CCc1ccccn1)C(=O)c1cccnc1Oc1ccccc1
Response: 11.3

###

molecular target: human ether-à-go-go-related gene (hERG) potassium channel (human); assay: primary screen, population patch clamp on CHO cells stably expressing hERG; higher = less effect of the substance;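 also: peak tail current of the secondary pulse compared with the same well before compound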
Out of some 310,000 compounds screened, about 14,000 (4.5%) showed an effect of 50% or more. Effects have a minus sign here. For the sample, strong results were picked, then their nearest neighbours and some compounds at random.
Classification field: T = hERG current change (%, negative = inhibition) at 10uM at or over 10%; F = hERG current change (%, negative = inhibition) at 10uM under 10%.

Known results for compounds:
COc1ccc(NC(=O)C2CCN(C(=O)c3ccco3)CC2)c(OC)c1 | T
COc1ccc(O)c(C(=O)c2cnc3c(c2)c(-c2ccc(F)cc2)c(C#N)c(=O)n3C)c1 | T
COCCCNC(=O)CNC(=S)N(Cc1ccccc1)Cc1cccnc1 | F

Now consider the entry below.
Request: Test whether the compound COc1ccc(CN(CCNC(=O)CCCCC(=O)NCCN(Cc2ccc(OC)cc2)C(C)C)C(C)C)cc1.Cl records hERG current change (%, negative = inhibition) at 10uM of 10% or higher.
Response: F
